- System Tested: T1, recombinant human integrin αvβ3 (human, UniProt P06756 31-992; P05106 27-718)
- T1 construct: also called recombinant human αvβ3 integrin; avβ3
- T1 sequence (P06756 31-992, chain 1 of 2): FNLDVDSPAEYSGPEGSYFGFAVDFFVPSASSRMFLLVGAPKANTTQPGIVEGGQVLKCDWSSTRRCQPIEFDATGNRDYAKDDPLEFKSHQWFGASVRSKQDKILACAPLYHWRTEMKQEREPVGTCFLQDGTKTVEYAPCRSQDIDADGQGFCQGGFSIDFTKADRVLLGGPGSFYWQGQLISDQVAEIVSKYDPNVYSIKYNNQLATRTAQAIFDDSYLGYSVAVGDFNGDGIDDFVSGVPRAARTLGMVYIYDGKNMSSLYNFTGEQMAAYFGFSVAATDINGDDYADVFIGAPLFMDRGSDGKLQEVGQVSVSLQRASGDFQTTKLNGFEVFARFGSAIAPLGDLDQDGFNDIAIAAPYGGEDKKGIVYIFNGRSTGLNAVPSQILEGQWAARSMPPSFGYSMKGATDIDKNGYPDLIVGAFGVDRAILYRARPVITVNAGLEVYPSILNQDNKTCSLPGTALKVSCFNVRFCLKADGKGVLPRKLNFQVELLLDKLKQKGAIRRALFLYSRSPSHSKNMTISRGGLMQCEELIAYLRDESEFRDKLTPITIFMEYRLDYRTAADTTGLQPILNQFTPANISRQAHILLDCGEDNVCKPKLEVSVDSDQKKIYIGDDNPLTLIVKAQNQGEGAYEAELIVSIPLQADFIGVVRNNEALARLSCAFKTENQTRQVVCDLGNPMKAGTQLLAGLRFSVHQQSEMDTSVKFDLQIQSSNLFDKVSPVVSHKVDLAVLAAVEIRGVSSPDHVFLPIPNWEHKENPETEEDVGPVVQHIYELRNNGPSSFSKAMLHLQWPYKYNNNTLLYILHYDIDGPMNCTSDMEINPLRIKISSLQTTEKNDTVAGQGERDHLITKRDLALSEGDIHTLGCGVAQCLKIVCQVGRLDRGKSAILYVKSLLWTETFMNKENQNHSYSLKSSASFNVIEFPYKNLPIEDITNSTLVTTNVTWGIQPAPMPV
- T1 sequence (P05106 27-718, chain 2 of 2): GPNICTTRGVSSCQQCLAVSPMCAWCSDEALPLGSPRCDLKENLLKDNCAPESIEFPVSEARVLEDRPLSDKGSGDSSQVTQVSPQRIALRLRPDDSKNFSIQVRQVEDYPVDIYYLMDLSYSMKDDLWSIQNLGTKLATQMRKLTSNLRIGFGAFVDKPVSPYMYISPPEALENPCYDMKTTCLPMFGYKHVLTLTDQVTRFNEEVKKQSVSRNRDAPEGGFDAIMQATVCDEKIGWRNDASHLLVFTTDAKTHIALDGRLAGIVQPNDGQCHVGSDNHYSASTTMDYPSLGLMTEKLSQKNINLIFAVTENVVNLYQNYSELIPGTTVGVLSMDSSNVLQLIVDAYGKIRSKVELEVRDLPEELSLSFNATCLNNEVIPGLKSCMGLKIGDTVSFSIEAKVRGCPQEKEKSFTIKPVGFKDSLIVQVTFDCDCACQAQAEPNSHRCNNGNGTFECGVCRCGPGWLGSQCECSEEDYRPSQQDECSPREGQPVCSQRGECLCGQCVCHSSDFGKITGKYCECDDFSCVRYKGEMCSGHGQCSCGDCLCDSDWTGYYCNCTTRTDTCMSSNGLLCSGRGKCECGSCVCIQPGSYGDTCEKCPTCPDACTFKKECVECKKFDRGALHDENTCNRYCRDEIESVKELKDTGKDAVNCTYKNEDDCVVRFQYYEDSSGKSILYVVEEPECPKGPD
- Assay Procedure: isolated integrin binding assay: adsorbed recombinant human αvβ3, competitor ligand biotinylated human plasma vitronectin
Non-standard residues stand in square brackets, D forms with d. No end group written: not given here. Ac6c = NC1(C(=O)O)CCCCC1
Provide the recorded pIC50 for the entries that follow.
// scale note: pIC50 = -log10(conc_M); give the bare number

QUERY: Need pIC50 of cyclo(RGD[dF][Ac6c]) (SMILES N=C(N)NCCC[C@@H]1NC(=O)C2(CCCCC2)NC(=O)[C@@H](Cc2ccccc2)NC(=O)[C@H](CC(=O)O)NC(=O)CNC1=O, X = non-natural residue Acha; also called CPPC 1; Cyclopeptide) [Cyclo-(Arg-Gly-Asp-DPhe-Acha)] , thanks.
RESULT: 8.68

QUERY: Need pIC50 of GRGDSPK-OH (Linear peptide with free C-terminus; also called GRGDSPK peptide) [Gly-Arg-Gly-Asp-Ser-Pro-Lys-OH] , thanks.
RESULT: 6.92
